Reference for the values: the array DNA melting data of Ke et al. (doi:10.1101/2024.01.08.574731)

# Assay overview: melting temperature; fluorescence melt of hairpins on a sequencing array, two-state fit, raised by 9.35 °C to match UV melts
# Particulars: sodium 0.088 M

Entry sequence	Tm [°C]
GATCTTCCCGAAGATC ((((((....))))))	49.4
GCGACTCATCGC ((((....))))	49
GATCCTGAGGAGGATC ((((((....))))))	49.2

----------
# Assay overview: melting temperature; fluorescence melt of hairpins on a sequencing array, two-state fit, raised by 9.35 °C to match UV melts
# Particulars: sodium 0.088 M
Form field: Tm (one value per entry).
Readout type: Tm

Entry sequence	Readout type	Recorded result
GGTCGAGGAAACTCAACC (((.(((....))).)))	Tm	37 °C
GGCCATCGAAAGATGCC (((.(((....))))))	Tm	54.9 °C
GATCACACGAGTGATC ((((((....))))))	Tm	56.4 °C
GTGAAACCGAAAGGTCAC (((..(((....))))))	Tm	42 °C
GATCGCCGGGCGATC ((((((...))))))	Tm	67.8 °C
GGACTGGCGAAAGCCTCC (((..(((....))))))	Tm	31.6 °C
GTCGAGCGAAAGCTAGAC (((.(((....))).)))	Tm	60.5 °C
GTGTCGGAAACGACAC ((((((....))))))	Tm	69.2 °C
GATCCCCTACGGGATC ((((((....))))))	Tm	61.9 °C
GGGGTTGGAAACAGTCCC (((..((....))..)))	Tm	36 °C
GAGGCTCCGAAAGGACTC (((..(((....))))))	Tm	34.4 °C
GAACGCGAAAGCGGCTTC ((((((....)))..)))	Tm	53.3 °C
GCAATCGCGAAAGCGTGC (((..(((....))))))	Tm	44 °C
CAGCGGAAACGCTG (((((....)))))	Tm	69.3 °C
ATTCAGAAATGAAT (((((....)))))	Tm	29.3 °C
GGCCGTCGAAAGACCGCC (((.(((....))).)))	Tm	53 °C
GCAACTACGAAAGTATGC (((..(((....))))))	Tm	32.1 °C
GAATACGAAAGTAATTC ((((((....))).)))	Tm	34.1 °C
GCCTCTACGAAAGTAGGC (((..(((....))))))	Tm	47.9 °C
GGGTCGGGAAACCAACCC ((((.((....)).))))	Tm	47.1 °C
GCGTTCGAAAGAATTCGC ((((((....)))..)))	Tm	36.2 °C
GAATCCGAAAGGACCTTC ((((((....)))..)))	Tm	30.3 °C
CGGTACGGAAACGTCCCG (((.(((....))).)))	Tm	46.6 °C
GTGAAGGGAAACCTTTAC ((.((((....)))).))	Tm	39.6 °C
GCACTCGAAAGAGGTGC ((((((....))).)))	Tm	54.4 °C
GATCCTGATGAGGATC ((((((....))))))	Tm	51.1 °C
GCCATCGAAAGATGGGGC ((((((....)))..)))	Tm	54.4 °C
GGAGCTGGAAACGGTTCC (((.(.(....).).)))	Tm	37.6 °C
GGCGTCGAAAGACCCGCC ((((((....)))..)))	Tm	55.3 °C
GATCTGATGTCAGATC ((((((....))))))	Tm	49.1 °C
GCGCATCGAAAGATACGC (((.(((....))).)))	Tm	54.5 °C
GATCCGTCCTCGGATC ((((((....))))))	Tm	58 °C
GTGAAGGGAAACCTTCAC (((((((....)))))))	Tm	60 °C
CGCCCGGAAACGGTCGCG ((((((....)))..)))	Tm	50.1 °C
GAGGTACGAAAGTATCTC (((.(((....))).)))	Tm	50.5 °C
GATAACCGAAAGGTAATC (((.(((....))).)))	Tm	40.2 °C
GTTCCCGAAAGGGACAAC ((((((....)))..)))	Tm	33.6 °C
GCGGCGCCCGC ((((...))))	Tm	60.9 °C

----------
# Assay overview: melting temperature; fluorescence melt of hairpins on a sequencing array, two-state fit, raised by 9.35 °C to match UV melts
# Particulars: sodium 0.088 M
Quick rule: Tm of at least 50 °C means Met, below that means Not met.

Entry sequence	Label
GATCTCGAGGGAGATC ((((((....))))))	Met
GTGCGCACGAAAGTGCAC (((..(((....))))))	Met
TGCTCGAAAGAGCA (((((....)))))	Met
GTTGAGGGAAACCCCAAC ((((.((....)).))))	Not met
GTTGAACGAAAGTTTAAC (((.(((....))).)))	Not met
GCCCGAGGAAACTCGGAC (.(((((....))))).)	Not met
GACGAAGAAATTCGTC ((((((....))))))	Met
GATTGGAAACAATC (((((....)))))	Not met
GGGTGTGGAAACACGCTC (.(.(((....))).).)	Met
GTTTTAGGAAACTAAAGC (.(((((....))))).)	Not met
CGTACGGAAACGTTAACG ((((((....)))..)))	Not met
GTGAGCTCGAAAGAGCAC (((..(((....))))))	Met
GGATGGGCGAAAGCCTCC (((..(((....))))))	Not met
GACGATGCGAAAGCAGTC (((..(((....))))))	Not met

----------
# Assay overview: folding enthalpy; higher = less favourable; fluorescence melt of hairpins on a sequencing array, two-state fit
# Particulars: sodium 0.088 M

Entry sequence	folding enthalpy [kcal/mol]
GCATTGGGAAACCAGTGC (((.(((....))).)))	-34.4
GCAGGGCGAAAGCAATGC (((..((....))..)))	-24.1
GACCATGGAAACATGATC ((.((((....)))).))	-23.2
GATCCCGAAAGGGGGATC ((((((....)))..)))	-20.1
CGCTACGGAAACGTTGCG (((.(((....))).)))	-38.7
GTCGACGAAAGTCCGAC ((((((....))).)))	-21.3
GCCTCCGGAAACGAAGGC ((((.((....)).))))	-28.3
GTGAACGAAAGTTGACAC ((((((....)))..)))	-18.6
GAATGCCGAAAGGCCTTC (((.(((....))).)))	-17
GCTCGCGAAAGCGAAGC ((((((....))).)))	-17.6
GGATTTGCGAAAGCATCC (((..(((....))))))	-16.4
GGACTCGAAAGAGGATCC ((((((....)))..)))	-17.9
GCATACGAAAGTATTGC ((((((....))).)))	-25.1
GATCGAAATATCGATC ((((((....))))))	-32.7
GCACGCGGAAACGCGCGC ((.((((....)))).))	-23.5
GTATTCGAAAGAAATAC ((((((....))).)))	-14.9
GCAGGCGAAAGCCAGTGC ((((((....)))..)))	-18.9
CGGGCGGAAACGCAACCG ((((((....)))..)))	-23.9
GGTTCCCGAAAGGGACC (((.(((....))))))	-23
GATTCCGAAAGGAGTATC ((((((....)))..)))	-15.7
GCGTACACACGC ((((....))))	-23.9
GCAGTGCGAAAGCACAGC ((.((((....)))).))	-17.1
CAAATGAAAATTTG (((((....)))))	-12.8
GTTTTAGAAATAAAAC ((((((....))))))	-22.3
GTACGAGGAAACTTGTAC ((((.((....)).))))	-37.1
GATGGCGAAAGCCGGATC ((((((....)))..)))	-10.2
GCTTTTTCGAAAGAAAGC (((..(((....))))))	-17.7
GGACTACGAAAGTACTCC (((.(((....))).)))	-13.3
GATCGACTTTCGATC ((((((...))))))	-22.2
GGGCTCGAAAGAGGCCC ((((((....))).)))	-14.3
GCCCGTCCGAAAGGAGGC (((..(((....))))))	-13.9
GTCGGTCCGAAAGGAGAC (((..(((....))))))	-15
GCAGCCGAAAGGCCTGC ((((((....))).)))	-25.5
GACTCTGGAAACAGGGTC (((.(((....))).)))	-30.7
GTATGAGGAAACTCATGC (.(((((....))))).)	-26.4
GAGAACCGAAAGGTCTC (((.(((....))))))	-20.6
GTAATGCCGAAAGGCTAC (((..(((....))))))	-9.18
GATCGGACGCCGATC ((((((...))))))	-37.4
GATCATTACCATGATC ((((((....))))))	-35.3
GTCAGCACGAAAGTGGAC (((..(((....))))))	-18
